viability, T/C overview
- Tested on: 931267-113-T-J1-PDC KRAS spheroid with HUVEC/MSC, viability;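 further: compound exposure lasted 7 days before the readout; 100% = DMSO vehicle control viability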
- procedure text: Anticancer human tumor 931267-113-T-J1-PDC patient-derived colon adenocarcinoma cell line growth inhibition [KRAS2]
- test context: second compound 3.16 µM; first compound 0.000316 µM; active compounds read low

>  <compound>
CN(C)C/C=C/C(=O)Nc1cc2c(Nc3ccc(F)c(Cl)c3)ncnc2cc1O[C@H]1CCOC1 + COc1cc2nc(C)nc(NC(C)c3cc(N)cc(C(F)(F)F)c3)c2cc1OC1CCOC1

>  <viability, T/C [%]>
72.8

$$$$
>  <compound>
CC(C)n1nc(-c2ccc3oc(N)nc3c2)c2c(N)ncnc21 + CC1OCC2(CCN(c3cnc(Sc4ccnc(N)c4Cl)c(N)n3)CC2)C1N

>  <viability, T/C [%]>
68.4

$$$$
>  <compound>
Cn1ncnc1[C@H]1c2n[nH]c(=O)c3cc(F)cc(c23)N[C@@H]1c1ccc(F)cc1 + CC1OCC2(CCN(c3cnc(Sc4ccnc(N)c4Cl)c(N)n3)CC2)C1N

>  <viability, T/C [%]>
83.7

$$$$
>  <compound>
Cn1ncnc1[C@H]1c2n[nH]c(=O)c3cc(F)cc(c23)N[C@@H]1c1ccc(F)cc1 + C=CC(=O)N1CCN(c2nc(=O)n(-c3c(C)ccnc3C(C)C)c3nc(-c4c(O)cccc4F)c(F)cc23)C(C)C1

>  <viability, T/C [%]>
97.7

$$$$
>  <compound>
CC(C)n1nc(-c2ccc3oc(N)nc3c2)c2c(N)ncnc21 + C=CC(=O)N1CCN(c2nc(OCC3CCCN3C)nc3c2CCN(c2cccc4cccc(C)c24)C3)CC1CC#N

>  <viability, T/C [%]>
18.4

$$$$
>  <compound>
CN(C)C/C=C/C(=O)Nc1cc2c(Nc3ccc(F)c(Cl)c3)ncnc2cc1O[C@H]1CCOC1 + CNCc1ccccc1-c1csc(C(C)Nc2nc(C)nc3cc(OC)c(OC)cc23)c1

>  <viability, T/C [%]>
94.4

$$$$
>  <compound>
CC(=O)Nc1cccc(-n2c(=O)n(C3CC3)c(=O)c3c(Nc4ccc(I)cc4F)n(C)c(=O)c(C)c32)c1 + COc1cc2nc(C)nc(NC(C)c3cc(N)cc(C(F)(F)F)c3)c2cc1OC1CCOC1

>  <viability, T/C [%]>
82.1

$$$$
